- Run Description: AUC (0 to infinity) in Sprague-Dawley rat at 2 mg/kg, iv administered as single dose
- Assay type: ADME, organism-based
- Set-up: dose 2 mg/kg, route intravenous, time infinity
- Applied Conditions: in vivo
Measure: AUC(0-inf) (ng·h/mL)

# Mol Smiles, Units Of Measure, Recorded Number
rows = [
    ("Cc1noc(C)c1-c1ccc2c(c1)O[C@H](CC1CC1)C(=O)N2", "ng·h/mL", 997),
]

----------
- Tested on: HFL1
- Run Description: Antiproliferative activity against HFL1 cells treated at 12 hrs post cell seeding measured at 72 to 144 hrs post cell seeding by Cell-Titer Glo assay
- Assay type: cell-based
- Applied Conditions: Homo sapiens
pIC50: −log10 of the molar value.
Measure: pIC50

# Mol Smiles, Measure, Recorded Number
records = [
    ("Cc1sc2c(c1C)C(c1ccc(Cl)cc1)=N[C@@H](CC(=O)OC(C)(C)C)c1nnc(C)n1-2", "pIC50", 6.54),
    ("Cc1noc(C)c1-c1ccc2c(c1)O[C@H](CC(C)C)C(=O)N2", "pIC50", 4.52),
    ("Cc1noc(C)c1-c1ccc2c(c1)O[C@H](CC1CC1)C(=O)N2", "pIC50", 4.70),
]

----------
- System Name: Bromodomain-containing protein 4 (Homo sapiens)
- Run Description: Inhibition of His6-tagged human BRD4 bromodomain-1 (N44 to E168 residues) expressed in Escherichia coli BL21(DE3) using biotinylated-H4KAc4 as substrate by AlphaScreen assay
Friendly reminder: IC50 below 500 nM is MET, at or above is NOT MET.

# Molecule, Qualitative Label
rows = [
    ("Cc1noc(C)c1-c1ccc2c(c1)O[C@H](Cc1ccccc1)C(=O)N2", "NOT MET"),
    ("Cc1noc(C)c1-c1ccc2c(c1)OC(Cc1ccccc1)C(=O)N2 (configuration not stated)", "NOT MET"),
    ("Cc1noc(C)c1-c1ccc2c(c1)OC(CC1CCC1)C(=O)N2 (configuration not stated)", "MET"),
    ("Cc1noc(C)c1-c1ccc2c(c1)OC(C(C)(C)C)C(=O)N2 (configuration not stated)", "MET"),
    ("Cc1noc(C)c1-c1ccc2c(c1)O[C@H](CC(C)C)C(=O)N2", "MET"),
    ("CCN1C(=O)[C@@H](CC2CC2)Oc2cc(-c3c(C)noc3C)ccc21", "MET"),
    ("Cc1noc(C)c1-c1ccc2c(c1)OC(c1ccccc1)C(=O)N2 (configuration not stated)", "MET"),
    ("Cc1noc(C)c1-c1ccc2c(c1)OC(c1cccc(C(F)(F)F)c1)C(=O)N2 (configuration not stated)", "NOT MET"),
    ("Cc1noc(C)c1-c1ccc2c(c1)OC(c1ccccc1C(F)(F)F)C(=O)N2 (configuration not stated)", "NOT MET"),
    ("Cc1noc(C)c1-c1ccc2c(c1)OC(CC1CCCCC1)C(=O)N2 (configuration not stated)", "NOT MET"),
    ("CSCCC1Oc2cc(-c3c(C)noc3C)ccc2NC1=O (configuration not stated)", "NOT MET"),
    ("Cc1noc(C)c1-c1ccc2c(c1)OC(c1cc(Cl)cc(Cl)c1)C(=O)N2 (configuration not stated)", "NOT MET"),
    ("Cc1noc(C)c1-c1ccc2c(c1)O[C@H](CC1CC1)C(=O)N2CC(=O)O", "NOT MET"),
    ("COC(=O)CN1C(=O)[C@@H](CC2CC2)Oc2cc(-c3c(C)noc3C)ccc21", "MET"),
    ("Cc1noc(C)c1-c1ccc2c(c1)O[C@H](CC1CC1)C(=O)N2C", "NOT MET"),
    ("CCCCC1Oc2cc(-c3c(C)noc3C)ccc2NC1=O (configuration not stated)", "MET"),
    ("Cc1noc(C)c1-c1ccc2c(c1)OC(c1ccc(Cl)c(Cl)c1)C(=O)N2 (configuration not stated)", "NOT MET"),
    ("Cc1noc(C)c1-c1ccc2c(c1)OC(CC1CCCC1)C(=O)N2 (configuration not stated)", "MET"),
    ("Cc1noc(C)c1-c1ccc2c(c1)OC(c1ccc(Cl)cc1)C(=O)N2 (configuration not stated)", "NOT MET"),
    ("Cc1noc(C)c1-c1ccc2c(c1)OC(CC1CC1)C(=O)N2 (configuration not stated)", "MET"),
    ("Cc1noc(C)c1-c1ccc2c(c1)O[C@H](CC1CC1)C(=O)N2CCN(C)C", "NOT MET"),
    ("Cc1noc(C)c1-c1ccc2c(c1)O[C@H](CC1CC1)C(=O)N2CC(=O)N(C)C", "NOT MET"),
    ("Cc1noc(C)c1-c1ccc2c(c1)OC(C(C)C)C(=O)N2 (configuration not stated)", "NOT MET"),
    ("Cc1noc(C)c1-c1ccc2c(c1)O[C@H](CC1CC1)C(=O)N2", "MET"),
    ("Cc1noc(C)c1-c1ccc2c(c1)OC(Cc1ccc(Cl)cc1)C(=O)N2 (configuration not stated)", "NOT MET"),
]
